Attribution: the supplement of paper PMC12632987

Biological target: GABARAPL2, P60520
Sequence (P60520 whole entry, the tested form may be a part): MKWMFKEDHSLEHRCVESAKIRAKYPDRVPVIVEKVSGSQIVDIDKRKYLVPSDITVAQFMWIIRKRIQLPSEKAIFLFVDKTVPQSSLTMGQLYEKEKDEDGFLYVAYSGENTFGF
Test: median log2 fold change of GCK-ALFA target abundance (FLAG IP / Myc IP barcode read proportion) (log2 ratio); each designed protein is fused to an ALFA-tag nanobody in HEK293 cells to bring the named protein to FLAG-tagged glucokinase (GCK); Myc marks an untargeted standard; higher = target protein stabilised (more abundant)
Conditions: target protein: 3xFLAG-MCP-GCK-ALFA reporter; HEK293 landing pad (RPLP)
The label depends only on median log2 fold change: Fulfilled if it is at least 0.02, Not fulfilled if it is smaller.

Some solved cases for reference:
{"binder": "GBRAPL2_151_7317 (protein) SELEKLLKELKALAEELWKLAEELAKKDPSVATEVETLVGGVEADIILAEEEEDPEEKRKHLLEAAKLAKDAAELIAEVLKSEKAKKLAEKAKKLAEKLK", "category": "Fulfilled"}
{"binder": "GBRAPL2_0_7258 (protein) LEEILKEMKTLSIEEAAELAKEEAERLVADPSVTPDEFEAAAFAMLEVLAEKVKKEKTEEALEIFDEAVDHFTALAAKIDPLTAAAVATHGGSLIYEIES", "category": "Not fulfilled"}
{"binder": "GBRAPL2_63_7403 (protein) SEVEKVLKAILEYATLDLDTAERIDKALESNLSEEELFEVLVETIKDINPELTDEEAEKIAELLIELAKQSEEKLKEAVRKLQTMENEEFIAYLEELVKE", "category": "Not fulfilled"}
{"binder": "GBRAPL2_151_7325 (protein) SELDELLKKLKELLERLEKLVKEAAKEKPEYETTLETLVGGAEADLLLAEEAENDEEKRRHLKEAAELIRDAAEEIAKITGKEEAKKLAEEAKKLLKELE", "category": "Fulfilled"}
{"binder": "GBRAPL2_0_7234 (protein) KEELLKELLSLSLEEAKKAIKELAEEVIKLIKEDPEKGIEKAIELAEVFAEYLIERKDEELAKVIDEAIDKIVKEVEKVDPNAAAEIASEIGSAIYEVES", "category": "Fulfilled"}

Please tell me: is the binder GBRAPL2_83_7416 (protein) MKKRVLITHEIEVKSEKVTKEEALDLAGDVAERLREKGIAAVVSVEEEDGVILVEIEALLEDSEEKIKIVEEEVEKLVKRLEELGAEVKLKTEREEEIVP at or over 0.02 in terms of median log2 fold change?
Fulfilled

Another: GBRAPL2_83_7418 (protein) VKTIRVITYDIEIKSENITEEEALDMAGDVAEELRKKGVKTVVGVEEENGVVHVTLEAIHEDDEELRKLIDEEVEKLVKELEAKGAEVKVKVEEELEEIE
Fulfilled

Another: GBRAPL2_63_7400 (protein) SAAKKALEALLEHAILDLETAERLEKALEEETDEEKLYEALVEAILDLNPEATREQAEEIADLLIELAKQSEAALKAAVRALSTVPLEEALAFLRAAVAA
Not fulfilled

Another: GBRAPL2_0_7212 (protein) MEEILEEISKLSIEEAAEKAIKLVKELVESKSLSTEELFELAKKLLEIIVEKVKEENKEESLEIARETADEIYEILKKVDPKEAAYVYTEIMEKILELEE
Fulfilled
